target: T1, AFP158/HLA-A*02:01 complex (human); test: SPR, crude scFv captured, pMHC analyte;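 also: Peptide-MHC complex at several concentrations passed over captured scFv, association then buffer-driven dissociation, on- and off-rates fitted from the curves and KD estimated from them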
T1 construct: flowed as analyte in SPR
Measurement Kind: Kd

Take a look at these entries with their results.
[[record]]
binder = "AS170036 VL1VH1-VHG56F (scFv) scFv: QSALTQPRSVSGSPGQSVTISCAGTSSDVGSENYVSWYQQHPGKAPKLMIYQVNKRASGVPDRFSGSKSGNTASLTISGLQAEDEADYYCASYRSSDHNIVFGGGTKLTVLGGGGSGGGGSGGGGSEVQLVESGGGLVQPGGSLRLSCAASGFTFSSYAMSWVRQAPGKGLEWVSTINSGTFSPYYADSVKGRFTISRDNSKNTLYLQMNSLRAEDTAVYYCAKNFFDGSWFLGPPAMDYWGQGTLVTVSSHHHHHH"
result = "98 nM"

[[record]]
binder = "AS170036 VL1VH1-VHS57H (scFv) scFv: QSALTQPRSVSGSPGQSVTISCAGTSSDVGSENYVSWYQQHPGKAPKLMIYQVNKRASGVPDRFSGSKSGNTASLTISGLQAEDEADYYCASYRSSDHNIVFGGGTKLTVLGGGGSGGGGSGGGGSEVQLVESGGGLVQPGGSLRLSCAASGFTFSSYAMSWVRQAPGKGLEWVSTINSGTGHPYYADSVKGRFTISRDNSKNTLYLQMNSLRAEDTAVYYCAKNFFDGSWFLGPPAMDYWGQGTLVTVSSHHHHHH"
result = "35 nM"


Name the recorded Kd of the binder listed here: AS170036 VL1VH1-VLE32W (scFv) scFv: QSALTQPRSVSGSPGQSVTISCAGTSSDVGSWNYVSWYQQHPGKAPKLMIYQVNKRASGVPDRFSGSKSGNTASLTISGLQAEDEADYYCASYRSSDHNIVFGGGTKLTVLGGGGSGGGGSGGGGSEVQLVESGGGLVQPGGSLRLSCAASGFTFSSYAMSWVRQAPGKGLEWVSTINSGTGSPYYADSVKGRFTISRDNSKNTLYLQMNSLRAEDTAVYYCAKNFFDGSWFLGPPAMDYWGQGTLVTVSSHHHHHH
100 nM
